Exercise: state measured pKi for each of the compounds provided.
experimental_system: wild-type rPepT1 (Oryctolagus cuniculus)
Construct: expressed in transfected cells; host or cells: Xenopus laevis oocytes injected with cRNA
procedure_text: Competition of [3H]-D-Phe-L-Gln uptake into Xenopus oocytes, Ki by method of Deves and Boyd
Type: cell-based, rabbit
protocol_conditions: pHout 5.5; inhibition of 0.4 μM [3H]-D-Phe-L-Gln uptake; n = 4
Where a SMILES comes first, the peptide text is derived from it.
Give bare numbers, as −log10 of the molar value.

NC(=O)[C@H](Cc1ccc(O)cc1)NC(=O)[C@@H](N)Cc1ccccc1 [Phe-Tyr-NH2] (H-Phe-Tyr-NH2) ... 2.18

Query: Report pKi for NC(Cc1ccccc1)C(=O)NC(Cc1ccc(O)cc1)C(=O)O (stereo not drawn) [Phe-Tyr] (H-Phe-Tyr-OH; configuration not given here) please.
Reply: 3.70

###

experimental_system: Y345F-rPepT1 (Oryctolagus cuniculus, UniProt P36836, Y345F)
Construct: expressed in transfected cells; host or cells: Xenopus laevis oocytes injected with cRNA
Sequence (P36836 1-707 Y345F): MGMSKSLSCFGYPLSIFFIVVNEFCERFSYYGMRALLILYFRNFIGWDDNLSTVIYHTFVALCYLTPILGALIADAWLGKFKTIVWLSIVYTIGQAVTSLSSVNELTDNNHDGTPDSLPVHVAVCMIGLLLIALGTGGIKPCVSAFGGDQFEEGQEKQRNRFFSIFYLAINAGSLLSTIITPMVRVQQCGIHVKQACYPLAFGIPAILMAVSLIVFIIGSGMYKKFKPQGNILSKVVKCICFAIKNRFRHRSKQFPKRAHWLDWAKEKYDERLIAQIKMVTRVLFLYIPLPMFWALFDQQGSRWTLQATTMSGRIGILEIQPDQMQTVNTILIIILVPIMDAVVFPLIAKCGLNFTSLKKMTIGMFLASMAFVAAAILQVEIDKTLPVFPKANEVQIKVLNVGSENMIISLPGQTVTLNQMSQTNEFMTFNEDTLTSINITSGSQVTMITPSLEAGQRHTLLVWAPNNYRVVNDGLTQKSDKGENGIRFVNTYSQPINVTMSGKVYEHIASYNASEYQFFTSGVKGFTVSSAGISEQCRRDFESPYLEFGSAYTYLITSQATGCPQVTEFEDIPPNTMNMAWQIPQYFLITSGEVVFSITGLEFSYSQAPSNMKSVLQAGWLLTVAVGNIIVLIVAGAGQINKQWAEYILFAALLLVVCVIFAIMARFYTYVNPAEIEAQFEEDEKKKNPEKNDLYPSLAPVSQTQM
procedure_text: Competition of [3H]-D-Phe-L-Gln uptake into Xenopus oocytes, Ki
Format: cell-based, rabbit
protocol_conditions: pHout 7.4; against 0.4 μM [3H]-D-Phe-L-Gln uptake
Where a SMILES comes first, the peptide text is derived from it.
parameter_measured: pKi
One number for each entry, as −log10 of the molar value.

Query: Report pKi for NCC(=O)N[C@@H](CCC(N)=O)C(=O)O [Gly-L-Gln] (H-Gly-Gln-OH) please.
Reply: 3.74

###

experimental_system: Y12F-rPepT1 (Oryctolagus cuniculus, UniProt P36836, Y12F)
Construct: expressed in transfected cells; host or cells: Xenopus laevis oocytes injected with cRNA
Sequence (P36836 1-707 Y12F): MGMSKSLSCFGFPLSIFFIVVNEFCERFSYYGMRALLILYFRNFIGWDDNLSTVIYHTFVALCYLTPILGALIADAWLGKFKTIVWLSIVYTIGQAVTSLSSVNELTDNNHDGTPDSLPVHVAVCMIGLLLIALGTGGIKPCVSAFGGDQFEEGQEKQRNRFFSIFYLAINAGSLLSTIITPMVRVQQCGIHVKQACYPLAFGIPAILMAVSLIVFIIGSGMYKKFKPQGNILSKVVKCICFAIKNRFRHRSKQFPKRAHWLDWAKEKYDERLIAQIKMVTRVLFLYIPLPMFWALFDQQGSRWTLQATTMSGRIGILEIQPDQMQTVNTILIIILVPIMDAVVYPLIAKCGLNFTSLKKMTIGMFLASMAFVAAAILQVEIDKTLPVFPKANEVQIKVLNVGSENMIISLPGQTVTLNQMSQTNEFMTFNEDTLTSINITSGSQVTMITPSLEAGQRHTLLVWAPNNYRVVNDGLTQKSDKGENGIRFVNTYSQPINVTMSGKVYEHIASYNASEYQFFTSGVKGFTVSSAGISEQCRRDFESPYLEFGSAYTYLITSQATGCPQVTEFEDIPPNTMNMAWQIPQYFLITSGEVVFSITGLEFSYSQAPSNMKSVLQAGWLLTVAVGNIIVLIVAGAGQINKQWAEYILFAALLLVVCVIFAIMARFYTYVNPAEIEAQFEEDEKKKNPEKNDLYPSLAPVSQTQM
procedure_text: Competition of [3H]-D-Phe-L-Gln uptake into Xenopus oocytes, Ki
Format: cell-based, rabbit
protocol_conditions: pHout 5.5; against 0.4 μM [3H]-D-Phe-L-Gln uptake
Where a SMILES comes first, the peptide text is derived from it.
parameter_measured: Ki (µM)
Give bare numbers, in µM.

Query: Report Ki for NCC(=O)N[C@@H](CCC(N)=O)C(=O)O [Gly-L-Gln] (H-Gly-Gln-OH) please.
Reply: 220

###

experimental_system: Y91F-rPepT1 (Oryctolagus cuniculus, UniProt P36836, Y91F)
Construct: expressed in transfected cells; host or cells: Xenopus laevis oocytes injected with cRNA
procedure_text: Competition of [3H]-D-Phe-L-Gln uptake into Xenopus oocytes, Ki
Format: cell-based, rabbit
protocol_conditions: pHout 5.5; against 0.4 μM [3H]-D-Phe-L-Gln uptake
Where a SMILES comes first, the peptide text is derived from it.
parameter_measured: Ki (µM)
Answers are plain numbers, in µM.

Query: Report Ki for NCC(=O)N[C@@H](CCC(N)=O)C(=O)O [Gly-L-Gln] (H-Gly-Gln-OH) please.
Reply: 1400

###

experimental_system: Y12F-rPepT1 (Oryctolagus cuniculus, UniProt P36836, Y12F)
Construct: expressed in transfected cells; host or cells: Xenopus laevis oocytes injected with cRNA
procedure_text: Competition of [3H]-D-Phe-L-Gln uptake into Xenopus oocytes, Ki
Type: cell-based, rabbit
protocol_conditions: pHout 7.4; against 0.4 μM [3H]-D-Phe-L-Gln uptake
Where a SMILES comes first, the peptide text is derived from it.
parameter_measured: pKi
Numbers only, as −log10 of the molar value.

Query: Report pKi for NCC(=O)N[C@@H](CCC(N)=O)C(=O)O [Gly-L-Gln] (H-Gly-Gln-OH) please.
Reply: 4.05
